System: BT-549 breast
Test: NCI tumour cell line growth inhibition, 48 h; in the data active = GI50 below about 0.43 µM; inactive = the rest
Outcomes: class 1 (active), class 0 (inactive)

{"compound": "Nc1ncccc1-c1nc2ccc(-c3ccccc3)nc2n1-c1ccc(C2(N)CCC2)cc1", "group-label": "class 1"}
{"compound": "C=C1CC[C@@H]2[C@](C)(COC(C)=O)[C@H](OC(C)=O)CC[C@@]2(C)[C@@H]1CC(Nc1ccc(S(=O)(=O)Nc2nccs2)cc1)C1=CCOC1=O (stereo partly specified)", "group-label": "class 0"}
{"compound": "Nc1cc2cccc[n+]2c2cccc(Cl)c12", "group-label": "class 0"}
{"compound": "COc1cc(/C=C/[N+](=O)[O-])cc(OC)c1OC", "group-label": "class 0"}
{"compound": "Cc1c2ccncc2c(C)c2c1c1cc(CO)ccc1n2C", "group-label": "class 0"}
{"compound": "CCN(CC)CCCC(C)Nc1c(-c2ccccc2)cnc2cc(Cl)ccc12 (stereo unspecified)", "group-label": "class 0"}
{"compound": "COc1ccc2c(c1)C(=O)c1c-2c(N2CCNCC2)nc2ccccc12", "group-label": "class 0"}
{"compound": "O=S(=O)(NC1=NCCN1C(=S)SN1CCn2c1nsc2=S)c1cccc(OC(F)(F)F)c1", "group-label": "class 0"}
{"compound": "CCN1C(=O)N(CC)C2C1NN=c1s/c(=C\\c3ccc[nH]3)c(=O)n12 (stereo unspecified)", "group-label": "class 0"}
{"compound": "Nc1n[nH]c2ccc([C@@H]3Nc4cc5[nH]ncc5cc4[C@H]4C5CCC(C5)[C@@H]34)cc12 (stereo partly specified)", "group-label": "class 0"}
{"compound": "O=C1CCC(N2C(=O)c3cccc(NCCCC4CCN(CCNC(=O)c5cc6c(o5)C(=O)c5ccccc5C6=O)CC4)c3C2=O)C(=O)N1 (stereo unspecified)", "group-label": "class 0"}

Origin of measurements: PubChem BioAssay (NCI)
